What pIC50 was measured for each of the following?
# assay-target: Mitogen-activated protein kinase kinase kinase 7 (Homo sapiens, UniProt O43318)
# Sequence (O43318 whole entry, the tested form may be a part): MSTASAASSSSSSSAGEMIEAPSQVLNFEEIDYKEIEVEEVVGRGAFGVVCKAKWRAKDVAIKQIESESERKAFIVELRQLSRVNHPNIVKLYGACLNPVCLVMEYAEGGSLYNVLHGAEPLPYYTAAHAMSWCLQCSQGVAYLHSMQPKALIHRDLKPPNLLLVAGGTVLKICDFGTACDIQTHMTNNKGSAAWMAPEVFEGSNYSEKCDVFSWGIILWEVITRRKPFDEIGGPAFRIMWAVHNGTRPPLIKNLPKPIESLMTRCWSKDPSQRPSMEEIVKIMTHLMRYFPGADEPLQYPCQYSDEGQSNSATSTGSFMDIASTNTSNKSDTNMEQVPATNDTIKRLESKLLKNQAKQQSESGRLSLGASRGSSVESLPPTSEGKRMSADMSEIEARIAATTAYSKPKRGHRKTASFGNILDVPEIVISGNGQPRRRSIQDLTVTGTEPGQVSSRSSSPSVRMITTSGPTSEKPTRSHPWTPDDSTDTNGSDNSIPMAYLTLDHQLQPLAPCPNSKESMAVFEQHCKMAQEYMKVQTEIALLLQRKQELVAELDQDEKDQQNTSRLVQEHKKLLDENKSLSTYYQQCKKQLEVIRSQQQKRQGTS
# test-method-notes: Time-dependent inhibition of TAB1 fused TAK1 (unknown origin) using FAM-LRRKtide as substrate by mobility shift assay
One number for each entry, as −log10 of the molar value.

Sample records with pIC50:
C=CC(=O)Nc1ccccc1Oc1nc(Nc2cnn(CCOC)c2)ncc1Cl; 8.12
C=CC(=O)Nc1ccccc1Oc1nc(Nc2ccc(N3CCN(C)CC3)cc2)ncc1Cl; 6.44

q: // query pIC50 value for entry C=CC(=O)Nc1ccccc1Nc1nc(Nc2ccc(N3CCN(C)CC3)cc2)ncc1Cl
a: 6.90
